koff values for the binders below.
target: PSD-95 PDZ3cα protein (residues R309-S422) (UniProt P78352 309-422); assay: SPR
Sequence (P78352 309-422): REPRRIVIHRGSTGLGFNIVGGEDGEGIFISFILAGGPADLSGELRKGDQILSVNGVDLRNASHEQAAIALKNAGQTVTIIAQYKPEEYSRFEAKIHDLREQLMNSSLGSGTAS
Bridges are numbered along the chain shown (N, C = ends). Where no end group is shown, it is not given here. [ ]: non-standard residue; d: D form. βAla = NCCC(=O)O
measuredEndpoint: koff (s⁻¹)

- binder: "RRRRRRG[dS]FPPWVQQTRV [D-Ser3 (peptide 14), SYNGAP peptide with d-Ser]"
  endpointResult: 0.00493
- binder: "RRRRRRGSFPPWV[dQ]QTRV [D-Gln9 (peptide 18), SYNGAP peptide with d-Gln]"
  endpointResult: 0.0182
- binder: "CKNYKKTEV (lactam 6-8 via βAla) [Cyclic peptide derived from CRIPT (peptide 6)]"
  endpointResult: 0.0291

Entry source: paper PMC10842001
